- measured.target: leukotriene D4 (Cavia porcellus, UniProt Q2NNR5)
- Construct: tracheas were isolated from male Hartley guinea-pigs, and spiral specimens of approximately 2 cm length were prepared; from tissue; host or cells: isolated guinea-pig trachea (spiral strips)
- Sequence (Q2NNR5 whole entry): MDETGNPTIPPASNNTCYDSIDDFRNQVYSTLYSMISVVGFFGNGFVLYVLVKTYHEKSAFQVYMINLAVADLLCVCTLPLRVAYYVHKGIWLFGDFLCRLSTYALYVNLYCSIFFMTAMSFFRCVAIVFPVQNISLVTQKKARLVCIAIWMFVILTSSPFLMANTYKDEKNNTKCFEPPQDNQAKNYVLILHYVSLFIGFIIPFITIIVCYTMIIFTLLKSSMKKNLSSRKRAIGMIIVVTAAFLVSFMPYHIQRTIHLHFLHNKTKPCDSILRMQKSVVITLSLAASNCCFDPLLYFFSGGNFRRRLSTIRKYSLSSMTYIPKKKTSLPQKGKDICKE
- measurement.notes: Leukotriene D4 antagonistic effect (isolated trachea, leukotriene D4 concentration-response curves, Schild)
- Design: species or system male Hartley guinea-pigs
- test.parameters: isolated guinea-pig trachea, contraction by leukotriene D4, test compound treatment 30 minutes, indomethacin 1 × 10^-6M, method of Schild
measured.quantity: Kb (nM)

compound: O=C(O)CCCc1ccc(C(CCC(F)(F)C(F)(F)C(F)(F)F)NS(=O)(=O)c2ccc(F)cc2)cc1 (stereo not shown)
assay.value: 251
//
compound: O=C(O)CCCc1ccc(C(CCCC(F)(F)C(F)(F)F)NS(=O)(=O)c2ccc(Cl)cc2)cc1 (stereo not shown)
assay.value: 200
//
compound: O=C(O)CCCc1ccc(C(CCC(F)(F)C(F)(F)C(F)(F)C(F)(F)F)NS(=O)(=O)c2ccc(F)cc2)s1 (stereo not shown)
assay.value: 100
//
compound: O=C(O)CCCc1ccc(C(CCCC(F)(F)C(F)(F)C(F)(F)F)NS(=O)(=O)c2ccc(F)cc2)s1 (stereo not shown)
assay.value: 398
